# assay_text: CCTE_Shafer_MEA_dev_inter_network_spike_interval_mean: CCTE's Neural Network Formation Assay for Mean Inter-network Spike Interval, Shafer Lab (AID 2284047)
Calls of active or inactive are those of the source. The calls were made as follows: active = hit-call score of the fitted dose curve at least 0.9, where 1 is the maximum; inactive = score below 0.9.
recorded_endpoint: outcome

record_smiles | recorded_endpoint | result
COC(=O)C(F)(F)C(F)(F)C(F)(F)F | outcome | inactive
O=C(OC(=O)C(F)(F)C(F)(F)F)C(F)(F)C(F)(F)F | outcome | inactive
CN(C)CCOC(c1ccccc1)c1ccccc1 | outcome | inactive

* * *

# assay_text: APR_HepG2_MitoMass_24hr: Apredica 24-hour HepG2 Assay for Mitochondrial Mass (AID 2282912)
# conditions_used: high-content imaging, actives raise or lower the signal
The source made the active and inactive calls. The calls were made as follows: active = hit-call score of the fitted dose curve at least 0.9, where 1 is the maximum; inactive = score below 0.9.
recorded_endpoint: AC50

record_smiles | AC50
O=C(CCCN1CCC(O)(c2ccc(Cl)cc2)CC1)c1ccc(F)cc1 | 46 µM (active)
CC(=O)Nc1ccc(O)cc1 | inactive
CN(C)CCOC(c1ccccc1)c1ccccc1 | inactive
CCCCc1oc2ccccc2c1C(=O)c1cc(I)c(OCCN(CC)CC)c(I)c1 | 20.7 µM (active)
CN(Cc1cnc2nc(N)nc(N)c2n1)c1ccc(C(=O)N[C@@H](CCC(=O)O)C(=O)O)cc1 | inactive

Proceed to the following item.
// sample O=C(c1ccccc1)c1ccccc1 , its AC50 was inactive

* * *

# Read-out: urokinase plasminogen activator (uPA), PLAU (gene 5328)
# assay_text: BSK_BE3C_uPA: BioMAP Diversity Plus: BE3C Assay for urokinase plasminogen activator (uPA) Biomarker Activity (AID 2283038);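 as to Outcome: uPA protein level quantified by ELISA in cell cultures; uPA read one day after compound addition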
# conditions_used: primary human bronchial epithelial cells; actives raise or lower the signal
Calls of active or inactive are those of the source. The calls were made as follows: active = hit-call score of the fitted dose curve at least 0.9, where 1 is the maximum; inactive = score below 0.9.
Assign a class; possible classes are 1.0 (active), 0.0 (inactive)

Outcome logged for CCCCCCCCCCCC in this assay:
0.0

Can you look up the reported call for C=CC(C)(CCC=C(C)C)OC(C)=O (configuration not stated) for me?
0.0

State the result this test recorded for CCCCC=O .
0.0

Recorded call for CCCCC(CC)C(=O)OCCOCCOCCOCCOC(=O)C(CC)CCCC (configuration not stated) ?
0.0

Outcome logged for Cc1ccc(N=Nc2c(O)ccc3ccccc23)c(C)c1 in this assay:
1.0

Just curious, what result did CN(C)c1ccc(C(=C2C=CC(=[N+](C)C)C=C2)c2ccccc2)cc1 get here?
1.0

Call for entry CCCCCCCCCCCCOS(=O)(=O)O :
1.0

* * *

# assay_text: CCTE_Padilla_ZF_Score.General: CCTE's 144 Hour Post-fertilization zebrafish Assay Score for General Malformation, Padilla Lab (AID 2284411)
Activity calls are given as the source filed them. Rule for the calls: active = hit-call score of the fitted dose curve at least 0.9, where 1 is the maximum; inactive = score below 0.9.
In this exercise, the only acceptable responses are active, inactive

Hey, what did the test say about O=C(O)CCC(F)(F)C(F)(F)C(F)(F)C(F)(F)C(F)(F)F ?
active

Tell me the assay call for FCOC(C(F)(F)F)C(F)(F)F please.
inactive

What was the test verdict on OCCN1CN(CCO)CN(CCO)C1 ?
inactive

Recorded test outcome, item O=CC(F)(F)C(F)(F)C(F)(F)C(F)F
inactive

Recorded test call requested for O=P(O)(O)CCC(F)(F)C(F)(F)C(F)(F)C(F)(F)C(F)(F)C(F)(F)F
inactive

Please indicate how the test categorized CN(CCO)S(=O)(=O)C(F)(F)C(F)(F)C(F)(F)C(F)(F)C(F)(F)C(F)(F)C(F)(F)C(F)(F)F .
inactive

Lab log entry: O=C(OC(=O)C(F)(F)C(F)(F)F)C(F)(F)C(F)(F)F — outcome as called in the assay?
inactive

Outcome logged for O=CC(F)(F)C(F)(F)C(F)(F)F in this assay:
active

I would be grateful if you could indicate the recorded call for FC(F)(F)C1(F)C(F)(F)C(F)(F)C(F)(F)C(F)(C(F)(F)F)C1(F)F (configuration not stated) .
inactive

Would you mind telling me which call this test gave CCCCCCCCCCCCCCCCCC[N+](C)(C)Cc1ccccc1 ?
inactive

What was the test verdict on FC(F)=C(F)C(F)(F)C(F)(F)C(F)(F)C(F)F ?
inactive

Can you look up the reported call for C=CC(F)(F)C(F)(F)C(F)(F)C(F)(F)F for me?
inactive

The measurements presented in this section are drawn from PubChem BioAssay (EPA / NIEHS).
